# IC50 listing for each entry below
system: IL-1β; test: PBMC assay: inhibition of IL-1β release after LPS stimulation (MSD); format: cell-based; conditions: Homo sapiens, PBMC, 6 h, human PBMCs, 100 ng/ml LPS for 6 hrs, MSD, 96 well plates; read-out: IL1β IC50

Query: Param item = CC(C)c1nn(CC(=O)Nc2ccncn2)c(=O)c2ccc(Br)cc12 ; retrieve measured IC50.
Reply: < 0.025 µM

Query: Cool, now CC(C)c1nn(CC(=O)Nc2cc(C(F)(F)F)ncn2)c(=O)c2ccc(C(F)(F)F)cc12
Reply: > 20 µM

Query: Cool, now CCc1nn(CC(=O)N[C@H]2CC[C@H](O)CC2)c(=O)c2ccc(C)cc12
Reply: > 10 µM

We now examine a further compound.
Query: Param item = CCc1nn(CC(=O)Nc2ccn(C(C)C)n2)c(=O)c2ccc(C3CC3)cc12 ; retrieve measured IC50.
Reply: > 20 µM

----------
test system: IL-1β; experiment: PBMC assay: inhibition of IL-1β release after LPS stimulation (MSD); type: cell-based; settings: Homo sapiens, PBMC, 6 h, human PBMCs, 100 ng/ml LPS for 6 hrs, MSD, 96 well plates; read-out: IL1β IC50
pIC50: −log10 of the molar value.
RESULT_TYPE: pIC50

Query: Param item = Cn1nc(NC(=O)Cn2nc(C3CC3)c3cc(C(F)(F)F)ccc3c2=O)ccc1=O [Final Cpd X93] ; retrieve measured pIC50.
Reply: 6.00

[P] O=C(Cn1nc(C2CC2)c2cc(Cl)ccc2c1=O)Nc1ccc2nncn2n1 [X-1002]
[Q] CCN1CCCC(NC(=O)Cn2nc(C(C)C)c3cc(C(F)(F)F)ccc3c2=O)C1=O (centres unmarked) [Final Cpd X152]
Query: Lab note: record which item had the higher pIC50, P or Q . Your answer should be the label of the entry you select.
Reply: P
(P: 6.34, Q: 5.12)

----------
test system: IL-1β; experiment: PBMC assay: inhibition of IL-1β release after LPS stimulation (MSD); format: cell-based; settings: Homo sapiens, PBMC, 6 h, human PBMCs, 100 ng/ml LPS for 6 hrs, MSD, 96 well plates; read-out: IL1β IC50
pIC50: −log10 of the molar value.
RESULT_TYPE: pIC50

Examples with answers:
Query: Param item = CC(C)c1nn(CC(=O)N[C@H]2CN(C3CC(F)(F)C3)CC[C@H]2O)c(=O)c2ccc(C(F)(F)F)cc12 ; retrieve measured pIC50.
Reply: 6.04

Query: Cool, now CC(C)c1nn(CC(=O)N[C@@H]2CCC[C@H]2O)c(=O)c2ccc(C(F)(F)F)cc12
Reply: 6.04

Query: Cool, now CC(C)c1nn(CC(=O)Nc2ccc3nccn3c2)c(=O)c2ccc(C(C)(F)F)cc12
Reply: 6.76

[a] CC(C)c1nn(CC(=O)Nc2ccncn2)c(=O)c2ccc(C(F)(F)F)cc12
[b] CCc1nn(CC(=O)N[C@H]2CC[C@H](O)CC2)c(=O)c2ccc(C(C)C)cc12
Query: When the recorded pIC50 values are compared, which is smaller: that of a or that of b ? Your answer should be the label of the entry you select.
Reply: b

Origin of measurements: patent US20230202989A1
